Target: cardiac potassium (hERG) channels (Homo sapiens, UniProt Q12809)
Sequence (Q12809 whole entry): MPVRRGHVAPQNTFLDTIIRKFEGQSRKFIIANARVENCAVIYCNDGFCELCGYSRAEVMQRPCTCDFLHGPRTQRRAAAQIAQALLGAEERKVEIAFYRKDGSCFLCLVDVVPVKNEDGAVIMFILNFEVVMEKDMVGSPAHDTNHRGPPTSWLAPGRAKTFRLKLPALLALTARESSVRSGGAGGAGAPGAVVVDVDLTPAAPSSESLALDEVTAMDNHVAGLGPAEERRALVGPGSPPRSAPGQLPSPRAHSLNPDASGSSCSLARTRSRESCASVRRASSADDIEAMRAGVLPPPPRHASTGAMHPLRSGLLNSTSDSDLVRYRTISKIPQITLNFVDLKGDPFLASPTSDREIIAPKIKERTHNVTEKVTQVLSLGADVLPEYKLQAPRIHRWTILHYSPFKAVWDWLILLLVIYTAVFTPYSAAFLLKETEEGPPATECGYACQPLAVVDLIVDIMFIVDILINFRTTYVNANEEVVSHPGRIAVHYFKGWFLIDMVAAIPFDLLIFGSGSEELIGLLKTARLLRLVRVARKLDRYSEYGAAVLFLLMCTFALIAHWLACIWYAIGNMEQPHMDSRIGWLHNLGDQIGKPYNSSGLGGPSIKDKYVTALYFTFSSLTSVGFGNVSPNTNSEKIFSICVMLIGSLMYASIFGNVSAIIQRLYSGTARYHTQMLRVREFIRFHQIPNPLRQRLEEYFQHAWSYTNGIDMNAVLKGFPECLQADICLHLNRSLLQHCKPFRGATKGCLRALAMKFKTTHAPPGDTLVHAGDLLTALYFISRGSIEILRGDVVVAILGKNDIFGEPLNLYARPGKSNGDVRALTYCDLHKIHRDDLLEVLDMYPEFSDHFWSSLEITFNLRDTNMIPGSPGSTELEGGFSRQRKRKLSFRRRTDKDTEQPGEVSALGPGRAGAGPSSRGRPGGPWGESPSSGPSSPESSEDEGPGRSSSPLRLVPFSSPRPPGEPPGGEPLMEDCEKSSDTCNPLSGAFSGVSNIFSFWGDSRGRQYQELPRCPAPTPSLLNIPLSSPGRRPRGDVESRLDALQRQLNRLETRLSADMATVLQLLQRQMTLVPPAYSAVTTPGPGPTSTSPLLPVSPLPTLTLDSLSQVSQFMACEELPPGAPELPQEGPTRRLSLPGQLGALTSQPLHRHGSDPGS
Test: hERG channel inhibition, Patchliner automated patch clamp
Details: automated patch clamp, maximum test concentration 100 μM
pIC50: −log10 of the molar value.

chemical.string | pIC50
CN(C)C(=O)c1ccc(Cn2cnccc2=O)cc1 | < 4.00

----------
Assay: Pharmacokinetics in mice
Assay type: in vivo
Conditions: mouse, whole blood; male C57BI/6 mice, iv 2 mg/kg or oral 10 mg/kg; read-out: Half-life in blood (t1/2) (converted)
readout: half-life (h)

chemical.string | result
CN(C)C(=O)c1ccc(Cn2cnccc2=O)cc1 | 1.9

----------
Assay: Plasma protein binding, rat plasma (rapid equilibrium dialysis)
Type: in vitro ADME
Settings: 37° C.
Experimental: The extent to which compounds of the invention bound to plasma proteins such as albumin and alpha-1 acid glycoprotein within human, rat or mouse plasma was determined by rapid equilibrium dialysis. Compounds were incubated at 5 μM for 4 hours at 37° C. Plasma protein binding for N,N-dimethyl-4-((6-oxopyrimidin-1(6H)-yl)methyl)benzamide in mouse plasma was 37.3%, in rat plasma was 14.8% and in human plasma was 30.6%.
readout: fraction unbound at 4 h, 5 μM

chemical.string | result
CN(C)C(=O)c1ccc(Cn2cnccc2=O)cc1 | 0.852

----------
Assay: Pharmacokinetics in rats
Type: in vivo
Conditions: rat, whole blood; Sprague Dawley rats, oral 10 mg/kg vs iv 2 mg/kg; read-out: Oral Bioavailability (F)

chemical.string | bioavailability
CN(C)C(=O)c1ccc(Cn2cnccc2=O)cc1 | 104%

----------
Test: Plasma protein binding, mouse plasma (rapid equilibrium dialysis)
Assay type: in vitro ADME
Details: 37° C.
Method: The extent to which compounds of the invention bound to plasma proteins such as albumin and alpha-1 acid glycoprotein within human, rat or mouse plasma was determined by rapid equilibrium dialysis. Compounds were incubated at 5 μM for 4 hours at 37° C. Plasma protein binding for N,N-dimethyl-4-((6-oxopyrimidin-1(6H)-yl)methyl)benzamide in mouse plasma was 37.3%, in rat plasma was 14.8% and in human plasma was 30.6%.
readout: fraction unbound at 4 h, 5 μM

chemical.string | result
CN(C)C(=O)c1ccc(Cn2cnccc2=O)cc1 | 0.627

----------
Assay: Pharmacokinetics in mice
Assay type: in vivo
Conditions: mouse, whole blood; male C57BI/6 mice, iv 2 mg/kg or oral 10 mg/kg (route not stated), blood
Protocol: N,N-dimethyl-4-((6-oxopyrimidin-1(6H)-yl)methyl)benzamide was administered to male C57BI/6 mice intravenously (2 mg/kg) or orally (10 mg/kg) by gavage. Whole blood diluted with water was prepared from these dosed animals over a time course up to 24 hours post dose to allow blood concentrations of drug to be measured by UPLC-MS/MS.

chemical.string | AUC(0-inf)
CN(C)C(=O)c1ccc(Cn2cnccc2=O)cc1 | 15600 ng·h/mL

----------
Biological target: hERG (Homo sapiens, UniProt Q12809)
Sequence (Q12809 whole entry): as above
Assay: hERG channel inhibition, Patchliner automated patch clamp
Format: cell-based
Settings: human; at 100 μM

chemical.string | unit.annotation | inhibition at 100 µM
CN(C)C(=O)c1ccc(Cn2cnccc2=O)cc1 | % | 7

----------
Experiment: Pharmacokinetics in rats
Type: in vivo
Settings: rat, whole blood; Sprague Dawley rats, iv 2 mg/kg or oral 10 mg/kg; read-out: Observed clearance

chemical.string | unit.annotation | clearance
[2H]C([2H])([2H])N(C(=O)c1ccc(Cn2cnccc2=O)cc1)C([2H])([2H])[2H] | mL/min/kg | 10.6
CNC(=O)c1ccc(Cn2cnccc2=O)cc1 | mL/min/kg | 10.6
CN(C)C(=O)c1ccc(Cn2cnccc2=O)cc1 | mL/min/kg | 10.6
